assay: chemical genetic growth profiling, strain panel (AID 1159580);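 also: tested at 20 µM; growth read once vehicle control cultures reached saturation at 30 °C; 1 = growth at the plate median or of vehicle wells; lower values mean less growth of the strain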; conditions: S. cerevisiae deletion strains, growth OD, locus YIL073C, strain SPO22, hits give low values
Hit rate of the full screen: of about 5,500 compounds, about 2,000 (36%) were called active. Roughly 18% stayed inconclusive and do not appear here. The list shows a part of the results.
Ranges used to classify normalized growth: lower segment: < 0.9; middle segment: ≥ 0.9 and < 1; upper segment: ≥ 1

• CC12CCC3c4ccc(OCc5ccccc5)cc4CCC3C1C[C@@H](O)[C@@H]2O (some centres not stated) = lower segment
• C[C@]12CCC3c4ccc(OS(=O)(=O)O)cc4CCC3C1CC[C@H]2O (some centres not stated) = middle segment
• CC(C)c1c(O)ccc2c1CCC1[C@@](C)(C=O)CCC[C@]21C (some centres not stated) = lower segment
• O=C(O[C@@H]1Cc2c(O)cc(O)cc2O[C@@H]1c1cc(O)c(=O)c2c(O)c(O)cc([C@H]3Oc4cc(O)cc(O)c4C[C@H]3O)c2c1)c1cc(O)c(O)c(O)c1 = lower segment
• COc1cc(OC)c2c(=O)c(OC)c(-c3ccc(OC)c(OC)c3)oc2c1 = upper segment
• O=c1c(O)c(-c2ccc(O)cc2O)oc2cc(O)cc(O)c12 = upper segment
• CC(=O)Oc1ccc2c(c1C(C)C)CCC1C(C)(C)CCC[C@]21C (some centres not stated) = upper segment
• CC(C)c1c(O)ccc2c1CCC1[C@@](C)(CO)CCC[C@]21C (some centres not stated) = lower segment
• C[C@@H]1O[C@@H](OC[C@H]2OC(Oc3c(-c4ccc(OCCO)c(OCCO)c4)oc4cc(OCCO)cc(O)c4c3=O)[C@H](O)[C@@H](O)[C@@H]2O)[C@H](O)[C@H](O)[C@H]1O (some centres not stated) = middle segment
• O=C(O[C@@H]1Cc2c(O)cc(O)cc2O[C@@H]1c1cc(O)c(=O)c2c(O)c(O)cc([C@H]3Oc4cc(O)cc(O)c4C[C@H]3OC(=O)c3cc(O)c(O)c(O)c3)c2c1)c1cc(O)c(O)c(O)c1 = lower segment
• COC(=O)[C@@]1(C)CCC[C@]2(C)c3ccc(O)c(C(C)C)c3CCC12 (some centres not stated) = upper segment
• O=c1c(O)c(-c2cc(O)c(O)c(O)c2)oc2cc(O)cc(O)c12 = upper segment

* * *

test: chemical genetic growth profiling, strain panel (AID 1159580);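 also: tested at 20 µM; growth read once vehicle control cultures reached saturation at 30 °C; 1 = growth at the plate median or of vehicle wells; lower values mean less growth of the strain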; conditions: S. cerevisiae deletion strains, growth OD, locus YNL020C, strain ARK1
The whole screen tested about 5,500 compounds, of which about 2,000 (36%) were called active. Not shown: some 18% with an inconclusive outcome. Rule as the data show it: active = normalized growth mostly below about 0.91 (no sharp cut-off); inconclusive = no clear call, values can overlap the other calls; inactive = mostly above about 0.92. This is one part of the list.
Classes used: true (1) for active, false (0) for inactive

* CC(C)(C)C(=O)NC(=S)N/N=C\c1cc(Cl)cc(Cl)c1O | true (1)
* O=S(=O)(CS(=O)(=O)Oc1ccc(Cl)c(Cl)c1)Oc1ccc(Cl)c(Cl)c1 | false (0)
* OC1(C(F)(F)F)CC(c2ccc3ccccc3c2)=NN1 (configuration not stated) | true (1)
* O=C(Nc1ccccc1)Nc1ccc(Cl)cc1[N+](=O)[O-] | false (0)
* Cc1cc(Oc2ccc(C(F)(F)F)cc2NS(C)(=O)=O)cc(C)c1Cl | false (0)
* CCCCNC(=S)N/N=C\c1cc(Cl)cc(Cl)c1O | true (1)
* Cc1cc(Cl)ccc1NNC(=O)c1sccc1Br | false (0)
* CCNC(=S)N/N=C\c1cc(Cl)cc(Cl)c1O | false (0)
* O=C1Nc2ccccc2/C1=C/c1ccc(C(F)(F)F)cc1Cl | false (0)
* O=C1Nc2ccccc2/C1=C\c1cccc([N+](=O)[O-])c1 | false (0)
* O=C(NNc1ccc(F)cc1F)c1sccc1Cl | false (0)
* Cc1nnc2n1N=C(c1ccc(CC(C)C)cc1)C(C)S2 (configuration not stated) | false (0)
